Reference for the values: patent US20090062251A1

Target: Human CB1 receptor (hCB1) (Homo sapiens, UniProt P21554)
Sequence (P21554 whole entry): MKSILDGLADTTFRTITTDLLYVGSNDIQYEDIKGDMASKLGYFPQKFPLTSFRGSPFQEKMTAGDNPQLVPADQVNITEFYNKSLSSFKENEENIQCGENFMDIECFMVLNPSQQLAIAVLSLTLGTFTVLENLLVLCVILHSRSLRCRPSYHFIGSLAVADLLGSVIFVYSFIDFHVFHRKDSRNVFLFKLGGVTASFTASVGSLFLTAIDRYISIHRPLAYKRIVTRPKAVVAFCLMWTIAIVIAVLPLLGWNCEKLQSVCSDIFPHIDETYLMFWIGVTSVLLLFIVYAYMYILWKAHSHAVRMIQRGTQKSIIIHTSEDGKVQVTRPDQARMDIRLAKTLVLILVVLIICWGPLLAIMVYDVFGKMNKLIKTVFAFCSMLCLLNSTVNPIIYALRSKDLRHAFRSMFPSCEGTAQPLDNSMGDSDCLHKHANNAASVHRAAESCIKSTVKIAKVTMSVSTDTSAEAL
pKi: −log10 of the molar value.
Please enter class 1 where pKi is greater than or equal to 7, and class 0 where it is lower.

stdin: Could you please find out whether `CN(C(=O)c1ccc2c(c1)c1c(n2C)CC[C@@H](C2CCOCC2)C1)[C@H](CO)CCC(=O)NCCF` has pKi that meets 7 or exceeds it?
stdout: class 1

stdin: Is reported pKi greater than or equal to 7 here: CCNC(=O)CN(CC)C(=O)c1ccc2c(c1)c1c(n2C(=O)N(C)C)CCC(C2CCOCC2)C1 (stereo not drawn)
stdout: class 0

stdin: pKi >= 7 for CN(CCN(C)C(=S)NC1CC1)C(=O)c1ccc2c(c1)c1c(n2C)CCC(C2CCOCC2)C1 (stereo not drawn) ?
stdout: class 1

stdin: Determine whether measured pKi meets or exceeds 7 for C[C@H](C(=O)NC1CC1)N(C)C(=O)c1ccc2c(c1)c1c(n2C)CCC(C2CCOCC2)C1 (stereo partly drawn)
stdout: class 1

stdin: Check this molecule for pKi at or above 7: Cn1c2c(c3cc(C(=O)N4CCC[C@H](NC(=O)C5CC5)C4)ccc31)CC(C1CCOCC1)CC2 (stereo partly drawn)
stdout: class 1

stdin: Hi team, for CCn1c2c(c3cc(C(=O)N(C)CCCC(=O)NCCO)ccc31)CC(C1CCOCC1)CC2 (stereo not drawn) , is the recorded pKi at or above 7?
stdout: class 0

stdin: Please check the record CCN(CC(=O)NCC#N)C(=O)c1ccc2c(c1)c1c(n2C)CCC(C2CCOCC2)C1 (stereo not drawn) and state if its pKi is at or above 7.
stdout: class 0

stdin: Does C[C@@H](C(=O)NC1CC1)N(C)C(=O)c1ccc2c(c1)c1c(n2C)CCC(C2CCOCC2)C1 (stereo partly drawn) have a reported pKi of at least 7?
stdout: class 0

* * *

Biological target: Human CB1 receptor (hCB1) (Homo sapiens, UniProt P21554)
Construct: purchased Receptor Biology
Assay: hCB1 GTPγS binding
Format: biochemical
Details: maximal stimulated binding determined with 10 μM Win 55,212-2
Hi there, I'd appreciate the recorded Emax for every entry that follows.
Give bare numbers, in %.

Use the examples below as a reference point.
molecule	unitAbbrev	Emax
CN(CCN(C)C(=S)NC1CC1)C(=O)c1ccc2c(c1)c1c(n2C)CCC(C2CCOCC2)C1 (centres unmarked)	%	106
CCn1c2c(c3cc(C(=O)N(C)CCCC(=O)NCCO)ccc31)CC(C1CCOCC1)CC2 (centres unmarked)	%	119
CN(CCN(C)C(=O)c1ccc2c(c1)c1c(n2C)CCC(C2CCOCC2)C1)C(=O)NC1CC1 (centres unmarked)	%	110
CN(CC(=O)NC1CC1)C(=O)c1ccc2c(c1)c1c(n2S(C)(=O)=O)CCC(C2CCCCC2)C1 (centres unmarked)	%	111

Shifting focus to the molecule that follows.
Entry under test: CCNC(=O)CCCN(C)C(=O)c1ccc2c(c1)c1c(n2CCF)CCC(C2CCOCC2)C1 (centres unmarked) . Its Emax was 109

* * *

Notes on pKi obtained with Human CB1 receptor (hCB1) (Homo sapiens).
Answers are plain numbers, as −log10 of the molar value.

molecule	pKi
CCN(CC(=O)NC(C)C)C(=O)c1ccc2c(c1)c1c(n2C2CCC2)CCC(C2CCOCC2)C1 (stereo not drawn)	6.82
CCNC(=O)CN(CC)C(=O)c1ccc2c(c1)c1c(n2C2CCC2)CCC(C2CCOCC2)C1 (stereo not drawn)	6.95
CCN(CC(=O)NC[C@@H](C)O)C(=O)c1ccc2c(c1)c1c(n2C)CCC(C2CCOCC2)C1 (stereo partly drawn)	6.74
CCNC(=O)CC[C@@H](CO)N(C)C(=O)c1ccc2c(c1)c1c(n2C)CC[C@@H](C2CCOCC2)C1	7.44
Cn1c2c(c3cc(C(=O)N4CCC(C(=O)NC5CC5)C4)ccc31)CC(C1CCOCC1)CC2 (stereo not drawn)	7.59

I would be grateful if you could provide pKi for each of the following entries.
1. CCNC(=O)CN(CC)C(=O)c1ccc2c(c1)c1c(n2CC2CC2)CCC(C2CCOCC2)C1 (stereo not drawn)
2. CCNC(=O)[C@@H](C)N(C)C(=O)c1ccc2c(c1)c1c(n2C)CCC(C2CCOCC2)C1 (stereo partly drawn)

stdout:
[7.19, 7.11]

With Human CB1 receptor (hCB1) (Homo sapiens) as the test system, CCn1c2c(c3cc(C(=O)N(C)CCCC(=O)NCC(F)F)ccc31)CC(C1CCOCC1)CC2 (stereo not drawn) showed pKi of 7.34

* * *

Target: Human CB1 receptor (hCB1) (Homo sapiens)
Assay: hCB1 GTPγS binding
Details: hCB1 membranes, GTPγ35S, 10-point dose-response
Assignment: determine reported EC50 for the given compounds.
Answers are plain numbers, in nM.

Worked cases, EC50 given:
compound	EC50 [nM]
CCNC(=O)CN(CC)C(=O)c1ccc2c(c1)c1c(n2C2CCC2)CCC(C2CCOCC2)C1 (centres unmarked)	233
CCN(CC(=O)NCCF)C(=O)c1ccc2c(c1)c1c(n2S(=O)(=O)CC)CCC(C2CCOCC2)C1 (centres unmarked)	12.9
CCN(CC(=O)NC)C(=O)c1ccc2c(c1)c1c(n2C)CCC(C2CCOCC2)C1 (centres unmarked)	342

Please supply EC50 for each of the following items, keeping them in order.
1. CN(C(=O)c1ccc2c(c1)c1c(n2C)CC[C@@H](C2CCOCC2)C1)[C@H](CO)CCC(=O)NCCF
2. CCN(CC(=O)N[C@@H]1CCOC1)C(=O)c1ccc2c(c1)c1c(n2C)CCC(C2CCOCC2)C1 (some centres unmarked)
3. C[C@H](C(=O)NC1CC1)N(C)C(=O)c1ccc2c(c1)c1c(n2C)CCC(C2CCOCC2)C1 (some centres unmarked)
4. CC(C)NC(=O)CC[C@@H](CO)N(C)C(=O)c1ccc2c(c1)c1c(n2C)CC[C@@H](C2CCOCC2)C1
5. CCN(CC(=O)NCCF)C(=O)c1ccc2c(c1)c1c(n2C2CCC2)CCC(C2CCOCC2)C1 (centres unmarked)
6. CC1CCN(C(=O)c2ccc3c(c2)c2c(n3S(C)(=O)=O)CCC(C3CCCCC3)C2)CC1 (centres unmarked)

stdout:
[61, 525, 29.6, 133, 279, 277]

Field: EC50. Fill in for each record below.
1. CCN(CCCC(=O)NCCO)C(=O)c1ccc2c(c1)c1c(n2C)CC[C@@H](C2CCOCC2)C1
2. CN(CCCC(=O)Nn1cccc1)C(=O)c1ccc2c(c1)c1c(n2C)CC[C@@H](C2CCOCC2)C1
3. CCN(CC(=O)NCCCF)C(=O)c1ccc2c(c1)c1c(n2S(=O)(=O)CC)CCC(C2CCOCC2)C1 (centres unmarked)
4. CCS(=O)(=O)n1c2c(c3cc(C(=O)N4CCC[C@@H]4C(=O)NCCF)ccc31)CC(C1CCOCC1)CC2 (some centres unmarked)
5. CCN(CC(=O)NCCC#N)C(=O)c1ccc2c(c1)c1c(n2S(=O)(=O)CC)CCC(C2CCOCC2)C1 (centres unmarked)
6. CCN(CC(=O)NC1COC1)C(=O)c1ccc2c(c1)c1c(n2C)CCC(C2CCOCC2)C1 (centres unmarked)
7. CONC(=O)CCCN(C)C(=O)c1ccc2c(c1)c1c(n2C)CC[C@@H](C2CCOCC2)C1
8. CCn1c2c(c3cc(C(=O)N4CCC(C)CC4)ccc31)CC(C1CCCCC1)CC2 (centres unmarked)

stdout:
1: 31; 2: 1050; 3: 33; 4: 1700; 5: 120; 6: 128; 7: 291; 8: 234

Take each entry in turn and give its EC50.
1. Cn1c2c(c3cc(C(=O)N4CCC(C(=O)NC5CC5)C4)ccc31)CC(C1CCOCC1)CC2 (centres unmarked)
2. CN(CCCC(=O)NCCO)C(=O)c1ccc2c(c1)c1c(n2C)CC[C@@H](C2CCOCC2)C1
3. CCNC(=O)CCCN(C)C(=O)c1ccc2c(c1)c1c(n2C)CCC(C2CCOCC2)C1 (centres unmarked)
4. CCS(=O)(=O)n1c2c(c3cc(C(=O)N(C)CC(=O)NC4CC4)ccc31)CC(C1CCOCC1)CC2 (centres unmarked)
5. CN(CCCC(=O)NCCO)C(=O)c1ccc2c(c1)c1c(n2C)CCC(C2CCOCC2)C1 (centres unmarked)
6. CCS(=O)(=O)n1c2c(c3cc(C(=O)N4CCC(C)CC4)ccc31)CC(C1CCCCC1)CC2 (centres unmarked)
7. CCNC(=O)CN(CC)C(=O)c1ccc2c(c1)c1c(n2CCF)CCC(C2CCOCC2)C1 (centres unmarked)
8. CCn1c2c(c3cc(C(=O)N(C)CCCC(=O)NCCF)ccc31)CC(C1CCOCC1)CC2 (centres unmarked)

stdout:
1. 18.5
2. 173
3. 63.5
4. 18.8
5. 155
6. 20
7. 438
8. 60.3

Please report EC50 for every entry that follows.
1. Cn1c2c(c3cc(C(=O)N4CC[C@H](NC(=O)C5CC5)C4)ccc31)CC(C1CCOCC1)CC2 (some centres unmarked)
2. CCN(CC(=O)NCC(F)F)C(=O)c1ccc2c(c1)c1c(n2C)CCC(C2CCOCC2)C1 (centres unmarked)

stdout:
[1150, 39.9]

Give EC50 for all compounds that follow.
1. CC1CCN(C(=O)c2ccc3c(c2)c2c(n3C)CCC(C3CCCCC3)C2)CC1 (centres unmarked)
2. CN(CCN(C)C(=O)c1ccc2c(c1)c1c(n2C)CCC(C2CCOCC2)C1)C(=O)NC1CC1 (centres unmarked)

stdout:
1: 65.1; 2: 468
